system: Escherichia Coli MC 4100; assay: MIC broth microdilution, E. coli MC 4100 (wild type); type: cell-based; conditions: E. coli MC 4100
measurement_kind: MIC (μg/ml) Broth microdilution (µg/mL)
Output spec: scalar in µg/mL, unitless text.

-- ask # lookup: MIC (μg/ml) Broth microdilution of C[C@H](N)C(=O)N(C)[C@@H](C)[C@H](NC(=O)[C@H](Cc1ccc(F)c(F)c1)NC(=O)N[C@@H](Cc1ccc(O)cc1)C(=O)O)C(=O)NC[C@H]1C[C@@H](O)[C@H](n2ccc(=O)[nH]c2=O)O1 [Compound 144]
-- reply 4

-- ask # lookup: MIC (μg/ml) Broth microdilution of CC(C(NC(=O)C(Cc1ccccc1)NC(=O)NC(Cc1c[nH]c2ccccc12)C(=O)O)C(=O)NCC1CC(O)C(n2ccc(=O)[nH]c2=O)O1)N(C)C(=O)C(N)Cc1ccc(O)cc1 (stereo not shown) [Compound 163]
-- reply 512

-- ask # lookup: MIC (μg/ml) Broth microdilution of CC(C(NC(=O)C(Cc1ccc(F)cc1)NC(=O)NC(Cc1c[nH]c2ccccc12)C(=O)O)C(=O)NCC1CC(O)C(n2ccc(=O)[nH]c2=O)O1)N(C)C(=O)CN (stereo not shown) [Compound 116]
-- reply 256

-- ask # lookup: MIC (μg/ml) Broth microdilution of CSCCC(NC(=O)NC(Cc1c[nH]c2ccccc12)C(=O)O)C(=O)NC(C(=O)NCC1CC(O)C(n2ccc(=O)[nH]c2=O)O1)C(C)N(C)C(=O)C(N)Cc1ccccc1 (stereo not shown) [Compound 111]
-- reply 512

-- ask # lookup: MIC (μg/ml) Broth microdilution of CC(N)C(=O)N(C)C(C)C(NC(=O)C(Cc1ccc(F)cc1)NC(=O)NC(Cc1c[nH]c2ccccc12)C(=O)O)C(=O)NCC1CC(O)C(n2ccc(=O)[nH]c2=O)O1 (stereo not shown) [Compound 158]
-- reply 512

-- ask # lookup: MIC (μg/ml) Broth microdilution of CC(C(NC(=O)C(Cc1ccccc1)NC(=O)NC(Cc1ccc(O)cc1)C(=O)O)C(=O)NCC1CC(O)C(n2ccc(=O)[nH]c2=O)O1)N(C)C(=O)C(N)Cc1ccccc1 (stereo not shown) [Compound 100]
-- reply 8

---

system: Mycobacterium fortuitum ATCC 6841; test: MIC broth microdilution, M. fortuitum ATCC 6841; details: 72 hours at 35° C., CAMHB
Assignment: determine reported MIC Broth microdilution M. fortuitum ATCC 6841 for the given compounds.
Output spec: scalar in µg/mL, unitless text.

-- ask # lookup: MIC Broth microdilution M. fortuitum ATCC 6841 of CC(C)CC(N)C(=O)N(C)C(C)C(NC(=O)C(Cc1ccccc1)NC(=O)NC(Cc1c[nH]c2ccccc12)C(=O)O)C(=O)NCC1CC(O)C(n2ccc(=O)[nH]c2=O)O1 (centres unmarked) [Compound 159]
-- reply 64

-- ask # lookup: MIC Broth microdilution M. fortuitum ATCC 6841 of C[C@@H]([C@H](NC(=O)[C@H](Cc1ccccc1)NC(=O)N[C@@H](Cc1c[nH]c2ccccc12)C(=O)O)C(=O)NC[C@H]1C[C@@H](O)[C@H](n2ccc(=O)[nH]c2=O)O1)N(C)C(=O)CN [Compound 128]
-- reply 64

-- ask # lookup: MIC Broth microdilution M. fortuitum ATCC 6841 of CC(N)C(=O)N(C)C(C)C(NC(=O)C(Cc1csc2ccccc12)NC(=O)NC(Cc1ccc(O)cc1)C(=O)O)C(=O)NCC1CC(O)C(n2ccc(=O)[nH]c2=O)O1 (centres unmarked) [Compound 130]
-- reply 32

-- ask # lookup: MIC Broth microdilution M. fortuitum ATCC 6841 of CC(C)CC(N)C(=O)N(C)C(C)C(NC(=O)C(Cc1ccc(F)cc1)NC(=O)NC(Cc1c[nH]c2ccccc12)C(=O)O)C(=O)NCC1CC(O)C(n2ccc(=O)[nH]c2=O)O1 (centres unmarked) [Compound 117]
-- reply 64

-- ask # lookup: MIC Broth microdilution M. fortuitum ATCC 6841 of CC(N)C(=O)N(C)C(C)C(NC(=O)C(Cc1ccc(Cl)cc1)NC(=O)NC(Cc1ccc(O)cc1)C(=O)O)C(=O)NCC1CC(O)C(n2ccc(=O)[nH]c2=O)O1 (centres unmarked) [Compound 135]
-- reply 64
